Molecular target: recombinant CREBBP bromodomain (Homo sapiens, UniProt Q92793)
Construct: recombinant CREBBP bromodomain obtained from BPS Bioscience, USA
Sequence (Q92793 1085-1192 limits assumed): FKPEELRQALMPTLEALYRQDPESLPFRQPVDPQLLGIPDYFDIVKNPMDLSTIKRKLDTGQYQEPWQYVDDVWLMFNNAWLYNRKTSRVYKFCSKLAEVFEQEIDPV
Test: CBP TR-FRET displacement assay
Settings: dose-response, read-out: IC50 (group A, B, C)
So I've got a bunch of compounds here, and I need their IC50 values.

Query: Need IC50 of Cc1cc2c(N3CCN(C)c4cc(-c5cnn(C)c5)ncc43)cc(OC(C)C)cc2n(C)c1=O [Example 156] , thanks.
Response: 51 to 100 nM

Query: Query COc1cc(N2CCc3cccc(-c4cnn(C)c4)c3C2)c2cc(C)c(=O)n(C)c2c1 [Example 189] next
Response: > 10 nM

Query: Query CNC(=O)C1CCN(c2cc3c(cc(C)c(=O)n3C)c(N3CCCc4cc(-c5cnn(C)c5)c(C(F)F)cc43)n2)C1 (stereo not shown) [Example 201] next
Response: < 50 nM

Query: Query COc1cc(N2CCN(C)c3cc(C(F)(F)F)ncc32)c2cc(C)c(=O)n(C)c2c1 [Example 124] next
Response: 51 to 100 nM

Query: Query CNC(=O)c1cc2c(cc1C#N)N(c1cc(OC)cc3c1cc(C)c(=O)n3C)CCN2C [Example 69] next
Response: < 50 nM

Query: Query COc1cc(N2CCCc3cc(N4CCN(C(C)=O)CC4)ccc32)c2cc(C)c(=O)n(C)c2c1 [Example 185] next
Response: > 10 nM

Query: Query CNC(=O)C1CCN(c2cc3c(cc2F)N(c2cc(N4CCOCC4)cc4c2cc(C)c(=O)n4C)CCN3C)CC1 [Example 49] next
Response: < 50 nM

Origin of measurements: patent US20230322724A1
